Target: T1, dimeric human LTBR-Fc biotinylated (P1AE2401) (human, UniProt P36941 31-227, biotinylated in vitro)
T1 construct: bought from R&D Systems (7538-LR); also called human LTBR ECD; not shown: human IgG1 Fc-Fragment
Assay: direct ELISA
Decision: EC50 beneath 0.1 nM gives satisfied; EC50 meeting or exceeding 0.1 nM gives not satisfied.

{"binder": "P1AE9459 (antibody, human IgG1, kappa, L234A L235A, V domains shown, human IgG1 PG LALA; from transgenic rabbit immunization) VH: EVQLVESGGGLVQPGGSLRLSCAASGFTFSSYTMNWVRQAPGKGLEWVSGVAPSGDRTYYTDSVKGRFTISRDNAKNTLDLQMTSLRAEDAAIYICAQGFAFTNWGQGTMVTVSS VL: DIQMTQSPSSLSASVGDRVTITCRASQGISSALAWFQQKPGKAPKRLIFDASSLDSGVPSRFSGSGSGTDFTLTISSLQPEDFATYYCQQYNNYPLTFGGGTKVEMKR", "cat": "satisfied"}
{"binder": "P1AF0079 (antibody, human IgG1, kappa, L234A L235A, V domains shown, human IgG1 PG LALA; from transgenic rabbit immunization; also called LTBR (0079)) VH: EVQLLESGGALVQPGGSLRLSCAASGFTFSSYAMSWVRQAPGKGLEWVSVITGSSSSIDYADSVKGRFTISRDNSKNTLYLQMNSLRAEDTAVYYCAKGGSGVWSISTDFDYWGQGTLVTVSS VL: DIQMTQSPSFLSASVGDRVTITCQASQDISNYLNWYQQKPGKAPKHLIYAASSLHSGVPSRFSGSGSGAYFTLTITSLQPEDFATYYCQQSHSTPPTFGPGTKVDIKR", "cat": "not satisfied"}
{"binder": "P1AF0080 (antibody, human IgG1, kappa, L234A L235A, V domains shown, human IgG1 PG LALA; from transgenic rabbit immunization; also called LTBR (0080)) VH: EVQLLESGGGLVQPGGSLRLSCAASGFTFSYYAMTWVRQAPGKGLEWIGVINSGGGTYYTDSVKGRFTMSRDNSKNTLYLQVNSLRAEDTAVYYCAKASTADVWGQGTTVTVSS VL: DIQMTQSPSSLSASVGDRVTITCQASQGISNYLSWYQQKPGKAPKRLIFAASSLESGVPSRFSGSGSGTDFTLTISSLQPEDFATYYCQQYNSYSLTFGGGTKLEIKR", "cat": "satisfied"}

A record lists P1AF0064 (antibody, human IgG1, kappa, L234A L235A, V domains shown, human IgG1 PG LALA constant regions; V domains from rat immunization; also called LTBR (0064)) VH: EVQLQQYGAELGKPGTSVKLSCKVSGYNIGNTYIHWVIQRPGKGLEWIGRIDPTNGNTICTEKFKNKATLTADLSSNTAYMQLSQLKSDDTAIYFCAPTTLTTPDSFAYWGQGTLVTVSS VL: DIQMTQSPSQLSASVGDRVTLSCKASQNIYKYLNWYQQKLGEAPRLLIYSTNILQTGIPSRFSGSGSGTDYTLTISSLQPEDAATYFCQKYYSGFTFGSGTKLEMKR . Is its EC50 below 0.1 nM?
satisfied

A record lists P1AE9457 (antibody, human IgG1, kappa, L234A L235A, V domains shown, human IgG1 PG LALA; from transgenic rabbit immunization; also called LTBR (9457)) VH: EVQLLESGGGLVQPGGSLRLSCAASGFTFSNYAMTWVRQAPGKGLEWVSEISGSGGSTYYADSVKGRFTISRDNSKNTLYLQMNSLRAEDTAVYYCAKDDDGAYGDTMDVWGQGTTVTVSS VL: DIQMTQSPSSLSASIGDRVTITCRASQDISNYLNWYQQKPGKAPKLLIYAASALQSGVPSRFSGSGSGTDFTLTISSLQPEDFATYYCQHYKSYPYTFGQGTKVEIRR . Is its EC50 below 0.1 nM?
not satisfied

A record lists P1AE9450 (antibody, human IgG1, kappa, L234A L235A, V domains shown, human IgG1 PG LALA; from transgenic rabbit immunization; also called LTBR (9450)) VH: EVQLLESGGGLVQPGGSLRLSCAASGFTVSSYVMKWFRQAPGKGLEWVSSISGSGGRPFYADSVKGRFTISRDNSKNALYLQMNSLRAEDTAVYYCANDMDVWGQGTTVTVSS VL: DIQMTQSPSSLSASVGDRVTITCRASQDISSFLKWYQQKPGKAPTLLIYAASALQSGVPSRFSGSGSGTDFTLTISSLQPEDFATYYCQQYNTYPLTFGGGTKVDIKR . Is its EC50 below 0.1 nM?
not satisfied
